// values below are reported Emax
- system: RXRα homodimer (RXR:RXR) (Homo sapiens)
- experimental.protocol: RXR homodimer co-transfection assay in CV-1 cells
- Format: cell-based
- experimental.setup: CV-1, read-out: RXR:RAR CV-1 (%) Ag.
Field: numeric (%). Do not append units.

• CCc1cc(-c2ccsc2/C=C/C(C)=C/C(=O)O)c(OCCCC(F)(F)F)c(C(C)(C)C)c1 [Compound L16] = 1

### Prompt Recorded Emax of CCOc1c(\C(C)=C/C=C/C(C)=C/C(=O)O)cc(C(F)(F)C(F)(F)F)cc1C(C)C [Compound L15] , please.
### Response 44

### Prompt Recorded Emax of C/C(=C/C=C/C(C)=C/C(=O)O)c1cc(C(C)(C)C)cc(C(C)(C)C)c1OCC(F)(F)F [Compound L23] , please.
### Response 1

### Prompt Recorded Emax of C/C(=C/C=C/C(C)=C/C(=O)O)c1cc(-c2ccccc2F)cc(C(C)C)c1OCC(F)F [Compound L19] , please.
### Response 3

### Prompt Recorded Emax of CCC(C)(C)c1cc(\C(C)=C/C=C/C(C)=C/C(=O)O)c(OCC(F)F)c(C(C)(C)CC)c1 [Compound L18] , please.
### Response 2

### Prompt Recorded Emax of CCc1cc(-c2ccsc2/C=C/C(C)=C/C(=O)O)c(OCCCF)c(C2CCCC2)c1 [Compound L17] , please.
### Response 3

* * *

- system: UniProt P19793
- experimental.protocol: RXRα binding (competition with tritiated LGD1069)
- experimental.setup: Table 3; mean of n > 3; read-out: RXRα Binding Ki
- Description: Non-specific binding was defined as that binding remaining in the presence of 500 nM of the appropriate unlabelled compound. At the end of the incubation period, bound ligand was separated from free. The amount of bound tritiated retinoid was determined by liquid scintillation counting of an aliquot (700 μL) of the supernatant fluid or the hydroxylapatite pellet. After correcting for non-specific binding, IC50 values were determined. […]
readout.name: pKi
// pKi here means minus log10 of the molar concentration (mol/L)

* COc1c(/C(C)=C/C=C/C(C)=C/C(=O)O)cc(C(C)(C)C)cc1C(C)(C)C | 8.96
* CCCOc1c(/C(C)=C/C=C/C(C)=C/C(=O)O)cc(C(C)(C)C)cc1C(C)(C)C | 8.96
* CCCCCCCOc1c(/C(C)=C/C=C/C(C)=C/C(=O)O)cc(C(C)(C)C)cc1C(C)(C)C | 9.22
* CCCCOc1c(/C(C)=C/C=C/C(C)=C/C(=O)O)cc(C(C)(C)C)cc1C(C)(C)C | 9.05

Next:
### Prompt Hi! What's the reported pKi for CCOc1c(/C(C)=C/C=C/C(C)=C/C(=O)O)cc(C(C)(C)C)cc1C(C)(C)C on UniProt P19793?
### Response 7.89

* * *

// values below are reported Emax
- system: RXRα:RAR heterodimer (Homo sapiens, UniProt P19793)
- Construct: expressed in transfected cells; host or cells: CV-1 cells
- Sequence (P19793 1-462): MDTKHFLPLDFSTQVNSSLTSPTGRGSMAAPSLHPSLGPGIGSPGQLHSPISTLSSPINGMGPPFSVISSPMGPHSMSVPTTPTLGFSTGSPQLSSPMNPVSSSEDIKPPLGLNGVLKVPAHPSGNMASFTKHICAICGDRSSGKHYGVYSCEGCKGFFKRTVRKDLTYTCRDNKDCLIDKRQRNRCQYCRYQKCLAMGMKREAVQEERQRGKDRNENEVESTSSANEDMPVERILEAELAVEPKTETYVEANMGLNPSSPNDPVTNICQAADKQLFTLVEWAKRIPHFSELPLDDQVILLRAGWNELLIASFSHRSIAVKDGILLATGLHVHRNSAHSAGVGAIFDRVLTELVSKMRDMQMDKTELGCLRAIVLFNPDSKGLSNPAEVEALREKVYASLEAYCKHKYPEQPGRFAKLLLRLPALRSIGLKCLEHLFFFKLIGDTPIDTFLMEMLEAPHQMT
- experimental.protocol: RXR:RAR heterodimer co-transfection assay in CV-1 cells
- Format: cell-based
- experimental.setup: CV-1, read-out: RXR:RAR CV-1 (%) Ag.

• CCOc1c(/C(C)=C/C=C/C(C)=C/C(=O)O)cc(C(C)(C)C)cc1C(C)(C)C = 6%
• CCc1cc(-c2ccsc2/C=C/C(C)=C/C(=O)O)c(OCCCC(F)(F)F)c(C(C)(C)C)c1 = 2%
• CCCCOc1c(/C(C)=C/C=C/C(C)=C/C(=O)O)cc(C(C)(C)C)cc1C(C)(C)C = 2%

Next:
### Prompt Recorded Emax of CCc1cc(-c2ccsc2/C=C/C(C)=C/C(=O)O)c(OCCCF)c(C2CCCC2)c1 , please.
### Response 4%

* * *

// values below are reported RXR:RAR CV-1 (%) Antag.
- system: RXRα:RAR heterodimer (Homo sapiens, UniProt P19793)
- Construct: expressed in transfected cells; host or cells: CV-1 cells
- Sequence (P19793 1-462): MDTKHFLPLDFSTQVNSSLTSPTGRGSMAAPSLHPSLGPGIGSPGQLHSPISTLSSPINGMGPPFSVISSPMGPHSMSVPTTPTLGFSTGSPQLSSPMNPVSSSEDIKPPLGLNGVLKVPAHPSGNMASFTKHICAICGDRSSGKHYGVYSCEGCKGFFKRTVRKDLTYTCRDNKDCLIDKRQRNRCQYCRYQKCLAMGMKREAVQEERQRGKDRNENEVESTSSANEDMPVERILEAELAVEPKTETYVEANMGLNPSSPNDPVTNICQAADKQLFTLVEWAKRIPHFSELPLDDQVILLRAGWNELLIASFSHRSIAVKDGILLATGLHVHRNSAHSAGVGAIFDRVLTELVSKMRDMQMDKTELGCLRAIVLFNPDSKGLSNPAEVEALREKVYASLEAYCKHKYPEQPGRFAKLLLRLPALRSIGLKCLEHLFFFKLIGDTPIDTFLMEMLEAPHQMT
- experimental.protocol: RXR:RAR heterodimer co-transfection assay in CV-1 cells
- Type: cell-based
- experimental.setup: maximal repression (100%) in presence of 10 nM TTNPB
Your reply should be a number followed by the unit it is expressed in.

These recorded examples may help you get a feel for the data.
• CCOc1c(/C(C)=C/C=C/C(C)=C/C(=O)O)cc(C(C)(C)C)cc1C(C)(C)C [Compound L2] = 49%
• CCCOc1c(/C(C)=C/C=C/C(C)=C/C(=O)O)cc(C(C)(C)C)cc1C(C)(C)C [Compound L3] = 84%
• COc1c(/C(C)=C/C=C/C(C)=C/C(=O)O)cc(C(C)(C)C)cc1C(C)(C)C [Compound L1] = 19%
• CCCCOc1c(/C(C)=C/C=C/C(C)=C/C(=O)O)cc(C(C)(C)C)cc1C(C)(C)C [Compound L4] = 88%

Next:
### Prompt Recorded RXR:RAR CV-1 (%) Antag. of CCCCCCCOc1c(/C(C)=C/C=C/C(C)=C/C(=O)O)cc(C(C)(C)C)cc1C(C)(C)C [Compound L5] , please.
### Response 68%

* * *

- system: RXRα homodimer (RXR:RXR) (Homo sapiens)
- experimental.protocol: RXR homodimer co-transfection assay in CV-1 cells
- Assay type: cell-based
- experimental.setup: Table 3 c2; mean of n > 3
readout.name: RXRα Homodimer Cotransfection Assay Agonist Efficacy (%)
Field: numeric (%). Do not append units.

* CCCCOc1c(/C(C)=C/C=C/C(C)=C/C(=O)O)cc(C(C)(C)C)cc1C(C)(C)C [Compound L4] | 1

### Prompt Recorded RXRα Homodimer Cotransfection Assay Agonist Efficacy (%) of CCOc1c(/C(C)=C/C=C/C(C)=C/C(=O)O)cc(C(C)(C)C)cc1C(C)(C)C [Compound L2] , please.
### Response 11

### Prompt Recorded RXRα Homodimer Cotransfection Assay Agonist Efficacy (%) of COc1c(/C(C)=C/C=C/C(C)=C/C(=O)O)cc(C(C)(C)C)cc1C(C)(C)C [Compound L1] , please.
### Response 62

### Prompt Recorded RXRα Homodimer Cotransfection Assay Agonist Efficacy (%) of CCCOc1c(/C(C)=C/C=C/C(C)=C/C(=O)O)cc(C(C)(C)C)cc1C(C)(C)C [Compound L3] , please.
### Response 2

### Prompt Recorded RXRα Homodimer Cotransfection Assay Agonist Efficacy (%) of CCCCCCCOc1c(/C(C)=C/C=C/C(C)=C/C(=O)O)cc(C(C)(C)C)cc1C(C)(C)C [Compound L5] , please.
### Response 0

* * *

- system: RXRα:PPARγ heterodimer (Homo sapiens, UniProt P19793)
- Construct: expressed in transfected cells; host or cells: CV-1 cells
- Sequence (P19793 1-462): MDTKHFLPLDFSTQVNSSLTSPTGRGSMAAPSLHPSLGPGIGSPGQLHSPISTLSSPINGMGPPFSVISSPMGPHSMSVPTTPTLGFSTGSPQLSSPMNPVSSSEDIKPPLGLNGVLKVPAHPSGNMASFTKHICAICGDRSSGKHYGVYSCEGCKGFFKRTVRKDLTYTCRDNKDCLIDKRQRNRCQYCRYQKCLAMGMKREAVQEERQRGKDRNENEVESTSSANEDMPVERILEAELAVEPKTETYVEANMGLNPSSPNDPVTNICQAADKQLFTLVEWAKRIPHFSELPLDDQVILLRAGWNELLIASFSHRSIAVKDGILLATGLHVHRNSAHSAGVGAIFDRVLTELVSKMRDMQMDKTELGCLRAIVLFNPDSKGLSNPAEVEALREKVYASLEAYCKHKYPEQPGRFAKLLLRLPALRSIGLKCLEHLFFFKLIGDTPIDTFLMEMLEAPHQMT
- Sequence (P37231 1-505 partner): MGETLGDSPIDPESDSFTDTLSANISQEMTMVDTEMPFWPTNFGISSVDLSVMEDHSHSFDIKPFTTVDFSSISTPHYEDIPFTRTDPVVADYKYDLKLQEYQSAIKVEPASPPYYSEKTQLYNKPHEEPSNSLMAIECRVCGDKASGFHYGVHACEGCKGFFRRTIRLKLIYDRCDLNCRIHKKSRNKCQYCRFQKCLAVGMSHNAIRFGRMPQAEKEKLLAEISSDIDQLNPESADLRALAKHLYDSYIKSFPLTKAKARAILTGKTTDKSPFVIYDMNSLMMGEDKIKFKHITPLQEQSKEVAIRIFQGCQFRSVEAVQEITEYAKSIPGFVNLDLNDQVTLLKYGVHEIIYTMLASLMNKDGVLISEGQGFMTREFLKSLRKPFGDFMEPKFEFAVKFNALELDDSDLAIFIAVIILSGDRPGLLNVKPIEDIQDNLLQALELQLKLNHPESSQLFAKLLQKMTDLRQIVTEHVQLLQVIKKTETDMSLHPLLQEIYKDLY
- experimental.protocol: RXR:PPARγ heterodimer co-transfection assay in CV-1 cells
- Assay type: cell-based
- experimental.setup: maximal response relative to response of BRL 49653
// values below are reported RXRα:PPARγ Heterodimer Cotransfection Assay Agonist Efficacy (%)
Field: numeric (%). Do not append units.

These recorded examples may help you get a feel for the data.
- CCCCOc1c(/C(C)=C/C=C/C(C)=C/C(=O)O)cc(C(C)(C)C)cc1C(C)(C)C: 3
- CN(CCOc1ccc(CC2SC(=O)NC2=O)cc1)c1ccccn1 (stereo not drawn) [BRL 49653, reference compound]: 100
- COc1c(/C(C)=C/C=C/C(C)=C/C(=O)O)cc(C(C)(C)C)cc1C(C)(C)C: 59
- CCCOc1c(/C(C)=C/C=C/C(C)=C/C(=O)O)cc(C(C)(C)C)cc1C(C)(C)C: 6
- CCCCCCCOc1c(/C(C)=C/C=C/C(C)=C/C(=O)O)cc(C(C)(C)C)cc1C(C)(C)C: 4

Next:
### Prompt Recorded RXRα:PPARγ Heterodimer Cotransfection Assay Agonist Efficacy (%) of CCOc1c(/C(C)=C/C=C/C(C)=C/C(=O)O)cc(C(C)(C)C)cc1C(C)(C)C , please.
### Response 14
